// reported IC50 for each item listed
Test system: murine melanoma B16-F10 cells
Assay: cells
Conditions: Mus musculus, B16-F10, 72 h, read-out: Cytotoxicity IC50
Give the value in µg/mL but do not write µg/mL after it.

Examples from the recorded data:
>  <entry-smiles>
CO[C@H]1[C@@H](O)[C@@H](C)O[C@H](O[C@H]2[C@H](Oc3cccc4c(O)c5c(=O)oc6ccc(C)c7c(=O)oc(c34)c5c67)O[C@H](C)[C@H](O)[C@]2(C)O)[C@@H]1NC(=O)CCC(=O)O

>  <unit-spec>
µg/mL

>  <IC50>
56

$$$$
>  <entry-smiles>
CO[C@H]1[C@@H](O)[C@@H](C)O[C@H](O[C@H]2[C@H](Oc3cccc4c(O)c5c(=O)oc6ccc(C)c7c(=O)oc(c34)c5c67)O[C@H](C)[C@H](O)[C@]2(C)O)[C@@H]1N1CCOCC1

>  <unit-spec>
µg/mL

>  <IC50>
11

$$$$
>  <entry-smiles>
CO[C@H]1[C@@H](O)[C@@H](C)O[C@H](O[C@H]2[C@H](Oc3cccc4c(O)c5c(=O)oc6ccc(C)c7c(=O)oc(c34)c5c67)O[C@H](C)[C@H](O)[C@]2(C)O)[C@@H]1NC(=O)CN

>  <unit-spec>
µg/mL

>  <IC50>
4.1

$$$$

Read the next record carefully.
QUERY: Please tell me: IC50 of CO[C@H]1[C@@H](O)[C@@H](C)O[C@H](O[C@H]2[C@H](Oc3cccc4c(O)c5c(=O)oc6ccc(C)c7c(=O)oc(c34)c5c67)O[C@H](C)[C@H](O)[C@]2(C)O)[C@@H]1N(C)C , system murine melanoma B16-F10 cells?
RESULT: 0.36

These data points were gathered from patent US5237055A.
